assay_explanation: Kinetic solubility assay
Assay type: physicochemical
protocol_conditions: aqueous buffer, kinetic from dmso stock; PBS pH 7.4, 25 °C, 2 h
Binary call on solubility at 2 h: met from 0.2 µM upward, not met beneath that.

Please review the entries below; each comes with its answer.
Fc1cc(-n2nnc3cnc(Nc4cnn(C5CCOCC5)c4)nc32)ccc1Cl [Compound 4] :: not met
CCOc1ccc(-n2nnc3cnc(Nc4cnn(CC)c4)nc32)cc1 [Compound 2] :: met
CCn1cc(Nc2ncc3nnn(-c4ccc(C(=O)OC)cc4)c3n2)cn1 [Compound 1] :: met
O[C@H]1CC[C@H](n2cc(Nc3ncc4nnn(-c5ccc(Cl)c(F)c5)c4n3)cn2)CC1 [Compound 8] :: not met

Let's switch to this molecule now.
Assess whether reported solubility at 2 h for COC(=O)c1ccc(-n2nnc3cnc(Nc4cnn([C@H]5CC[C@H](O)CC5)c4)nc32)cc1 [Compound 9] sits at 0.2 µM or higher. not met

###

target_or_test_system: PKR (Homo sapiens, UniProt P19525)
Construct: purchased Reaction Biology Corporation (Malvern, PA)
Sequence (P19525 whole entry): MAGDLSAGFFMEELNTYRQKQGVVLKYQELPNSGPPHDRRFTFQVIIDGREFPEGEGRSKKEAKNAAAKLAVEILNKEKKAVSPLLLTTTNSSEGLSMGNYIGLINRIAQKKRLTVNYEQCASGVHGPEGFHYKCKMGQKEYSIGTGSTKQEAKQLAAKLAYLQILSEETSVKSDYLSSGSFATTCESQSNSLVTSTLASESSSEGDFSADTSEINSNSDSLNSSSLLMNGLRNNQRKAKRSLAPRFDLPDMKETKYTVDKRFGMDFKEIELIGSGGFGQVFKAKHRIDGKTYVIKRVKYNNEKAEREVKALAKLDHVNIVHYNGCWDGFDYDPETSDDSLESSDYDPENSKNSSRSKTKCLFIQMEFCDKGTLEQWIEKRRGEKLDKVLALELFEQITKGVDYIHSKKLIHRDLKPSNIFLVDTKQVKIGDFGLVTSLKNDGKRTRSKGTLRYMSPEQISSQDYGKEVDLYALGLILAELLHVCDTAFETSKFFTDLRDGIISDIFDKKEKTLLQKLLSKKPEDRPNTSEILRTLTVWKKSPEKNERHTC
assay_explanation: radiometric HotSpot kinase assay
Type: biochemical
protocol_conditions: 10 μM compound, 10 μM ATP; read-out: % Enzyme inhibition at 10 μM, PKR
measured_parameter: inhibition at 10 µM (%)
# unit: % | format: bare number

Field: example entries. Status: answers known.
Fc1cc(-n2nnc3cnc(Nc4cnn(C5CCOCC5)c4)nc32)ccc1Cl [Compound 4] :: 96
CCn1cc(Nc2ncc3nnn(-c4ccc(C(=O)OC)cc4)c3n2)cn1 [Compound 1] :: 93
COC(=O)c1ccc(-n2nnc3cnc(Nc4cnn(C5CCOCC5)c4)nc32)cc1 [Compound 5] :: 96
COC(=O)c1ccc(-n2nnc3cnc(Nc4cnn([C@H]5CC[C@H](O)CC5)c4)nc32)cc1 [Compound 9] :: 95
O[C@H]1CC[C@H](n2cc(Nc3ncc4nnn(-c5ccc(Cl)c(F)c5)c4n3)cn2)CC1 [Compound 8] :: 98

Please look at the following compound next.
# input compound: CCOc1ccc(-n2nnc3cnc(Nc4cnn(CC)c4)nc32)cc1 [Compound 2] ; wanted: its inhibition at 10 µM 99

###

Record type: IC50 measurement. Applies to: human GCN2 (Homo sapiens)
# unit: nM | format: bare number

Field: example entries. Status: answers known.
CCOc1ccc(-n2nnc3cnc(Nc4cnn([C@H]5CC[C@H](O)CC5)c4)nc32)cc1 [Compound 7] :: 22.4
CCOc1ccc(-n2nnc3cnc(Nc4cnn(CC)c4)nc32)cc1 [Compound 2] :: 18.6
Fc1cc(-n2nnc3cnc(Nc4cnn(C5CCOCC5)c4)nc32)ccc1Cl [Compound 4] :: 25.7

Find the measured IC50: item COC(=O)c1ccc(-n2nnc3cnc(Nc4cnn(C5CCOCC5)c4)nc32)cc1 [Compound 5] , target or system human GCN2 (Homo sapiens). 17.2

Find the measured IC50: item CCOc1ccc(-n2nnc3cnc(Nc4cnn(C5CCOCC5)c4)nc32)cc1 [Compound 3] , target or system human GCN2 (Homo sapiens). 44.5

###

target_or_test_system: PERK (Homo sapiens, UniProt Q9NZJ5)
Construct: purchased Reaction Biology Corporation (Malvern, PA)
Sequence (Q9NZJ5 30-1116): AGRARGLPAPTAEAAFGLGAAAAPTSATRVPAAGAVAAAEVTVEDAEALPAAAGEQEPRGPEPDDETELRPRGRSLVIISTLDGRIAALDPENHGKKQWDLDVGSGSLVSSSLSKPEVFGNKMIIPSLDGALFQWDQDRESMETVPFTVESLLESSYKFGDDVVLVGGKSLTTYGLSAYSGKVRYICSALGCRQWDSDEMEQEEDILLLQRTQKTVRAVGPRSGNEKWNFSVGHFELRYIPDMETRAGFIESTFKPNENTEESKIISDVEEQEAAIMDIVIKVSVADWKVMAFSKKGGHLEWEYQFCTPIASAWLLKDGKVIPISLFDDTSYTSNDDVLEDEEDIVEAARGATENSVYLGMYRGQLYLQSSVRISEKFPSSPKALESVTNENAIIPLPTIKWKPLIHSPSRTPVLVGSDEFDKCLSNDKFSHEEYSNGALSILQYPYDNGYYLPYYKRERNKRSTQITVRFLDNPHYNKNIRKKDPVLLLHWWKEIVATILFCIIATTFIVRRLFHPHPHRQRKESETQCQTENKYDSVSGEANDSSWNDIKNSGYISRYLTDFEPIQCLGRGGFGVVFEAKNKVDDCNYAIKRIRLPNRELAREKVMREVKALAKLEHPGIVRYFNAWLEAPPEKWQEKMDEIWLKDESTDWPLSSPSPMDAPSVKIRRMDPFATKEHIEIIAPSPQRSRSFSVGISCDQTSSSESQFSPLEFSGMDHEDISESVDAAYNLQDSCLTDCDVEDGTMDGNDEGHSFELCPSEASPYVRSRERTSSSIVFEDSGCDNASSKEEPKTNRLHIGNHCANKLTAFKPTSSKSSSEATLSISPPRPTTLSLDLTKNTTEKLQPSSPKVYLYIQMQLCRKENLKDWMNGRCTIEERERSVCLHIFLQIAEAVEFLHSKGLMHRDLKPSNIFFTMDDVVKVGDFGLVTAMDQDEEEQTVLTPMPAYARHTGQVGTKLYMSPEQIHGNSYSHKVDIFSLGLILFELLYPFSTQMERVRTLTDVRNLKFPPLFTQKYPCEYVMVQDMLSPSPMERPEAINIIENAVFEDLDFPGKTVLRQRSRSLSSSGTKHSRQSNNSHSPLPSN
assay_explanation: radiometric HotSpot kinase assay
Type: biochemical
protocol_conditions: 10 μM compound, 10 μM ATP; read-out: % Enzyme inhibition at 10 μM, PERK
measured_parameter: inhibition at 10 µM (%)
# unit: % | format: bare number

Field: example entries. Status: answers known.
c1nn(C2CCOCC2)cc1Nc1ncc2nnn(-c3ccc4cn[nH]c4c3)c2n1 :: 35
CCn1cc(Nc2ncc3nnn(-c4ccc(C(=O)OC)cc4)c3n2)cn1 :: 24
CCOc1ccc(-n2nnc3cnc(Nc4cnn([C@H]5CC[C@H](O)CC5)c4)nc32)cc1 :: 24
CCOc1ccc(-n2nnc3cnc(Nc4cnn(C5CCOCC5)c4)nc32)cc1 :: 25

Please look at the following molecule next.
# input molecule: "COC(=O)c1ccc(-n2nnc3cnc(Nc4cnn([C@H]5CC[C@H](O)CC5)c4)nc32)cc1" ; wanted: its inhibition at 10 µM 14
